- Target Entity: MD145 virus-like particle (GII.4, capsid protein VP1) (Norovirus GII.4 strain MD145-12)
- Test Method Notes: SPR (Biacore 1000), Fab on MD145 virus-like particle
Readout Type: kon (M⁻¹ s⁻¹)
One number for each entry, in M⁻¹ s⁻¹.

Query :: Consider the binder anti-GII.4 NV Fab D4 (Fab, V domains shown) VH: EVQLVESGPGLVKPSETLSLTCAVSGASIRRANWWGWIRQAPGKGLEWLGSIFINAGTIYNPSLTGRVTVSADTSKNLFSLKLGSVTAADTAVYYCVKSYGDGDDNYNSFYYYMDVWGKGTSVIVSS VL: DVVMTQSPSSLSASVGDRVTITCRASQDIRNNLAWYQHKPGKAPKLLIYYASKLQSGVPLRFSGSGSGTDYTLFISSLQPEDFATYYCQQYKTDTPYSFGQGTKVDIKR and give its recorded kon.
Result :: 1.47e+06
